Attribute: self-cleavage kobs at 640 uM GlcN6P
B1: glmS ribozyme (parent)
chain: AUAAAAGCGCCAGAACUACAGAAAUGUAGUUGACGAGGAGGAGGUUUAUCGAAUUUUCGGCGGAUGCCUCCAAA

Variants of: B1
protocol_text: self-cleavage kobs at 640 uM GlcN6P; higher = faster cleavage; RNA array
conditions: with glucosamine-6-phosphate
Variants at the floor of the assay were thinned out.

mutation_list | self-cleavage kobs at 640 uM GlcN6P
G66C C71G | 4e-05 s⁻¹
G32C A33U C68U C71G | < 1e-05 s⁻¹
A14U A53C | 0.000309 s⁻¹
U31A A33G U49C C58G | < 1e-05 s⁻¹
G7A A15U A33G A36U G38U U57C | < 1e-05 s⁻¹
G7C G43U A53C G66U | < 1e-05 s⁻¹
G29U U55G G59U C70G | 0.00019 s⁻¹
A33C U47G A48C | < 1e-05 s⁻¹
A6G A39U | 8.14e-05 s⁻¹
C34U G40U C50U | < 1e-05 s⁻¹
A42U G51A G63U | < 1e-05 s⁻¹
C8A C16U G29U G62A | < 1e-05 s⁻¹
C16G A36C | < 1e-05 s⁻¹
U31C U55G | 0.00104 s⁻¹
C8G C10U A14G C34A U69G | 0.000745 s⁻¹
C16G A64G | 0.00103 s⁻¹
A6U C61G | < 1e-05 s⁻¹
A36C G43U | < 1e-05 s⁻¹
G44U C67U C71U | 0.00022 s⁻¹
G40U C67G | < 1e-05 s⁻¹
G13U C34G U45C U47A | < 1e-05 s⁻¹
G9C A53C C70U | < 1e-05 s⁻¹
